Taken from patent US20240050568A1.

Parameter: Kd. Scope: all listed entries.
Biological target: T1, CD5 antigen (Acro, CD5-H52H5) (UniProt P06127 25-371)
T1 construct: Bought protein
T1 sequence (looked up): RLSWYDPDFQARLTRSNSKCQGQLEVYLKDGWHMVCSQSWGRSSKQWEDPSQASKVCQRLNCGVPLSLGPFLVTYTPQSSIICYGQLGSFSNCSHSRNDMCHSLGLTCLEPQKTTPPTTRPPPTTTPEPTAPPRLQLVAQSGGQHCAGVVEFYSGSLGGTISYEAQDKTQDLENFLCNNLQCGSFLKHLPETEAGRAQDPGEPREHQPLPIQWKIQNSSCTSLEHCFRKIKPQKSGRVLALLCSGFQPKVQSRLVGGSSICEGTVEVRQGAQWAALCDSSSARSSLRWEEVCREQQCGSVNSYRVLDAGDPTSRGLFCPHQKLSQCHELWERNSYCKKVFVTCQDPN
Test: BLI (Octet), IgG loaded on the biosensor, CD5 antigen 100 to 1.563 nM, 1:1 model
The reply should be a number in nM, with the unit left off.

Check out these entries, answers already filled in.
[
  {
    "binder": "FHVH3 (#61 IgG) (Fc fusion, also called #61 clone; anti-CD5 IgG; not shown: human IgG4 Fc) QVQLVQSGAEVKKPGSSVKVSCKASGGTFSNYAISWVRQAPGQGLEWMGWISAYNGDTKYAQRLQGRVTMTTDTSTSTAYMELRNLRSDDTAVYYCARYESMSGQDIWGQGTLVTVSS",
    "Kd (nM)": 3.96
  },
  {
    "binder": "FHVH3VH1 (#61-42 IgG) (Fc fusion, also called anti-CD5 IgG; not shown: human IgG4 Fc) QVQLVQSGAEVKKPGSSVKVSCKASGGTFSNYAISWVRQAPGQGLEWMGWISAYNGDTKYAQRLQGRVTMTTDTSTSTAYMELRNLRSDDTAVYYCARYESMSGQDIWGQGTLVTVSSGGGGSGGGGSGGGGSEVQLLESGGGLVQPGGSLRLSCAASGFTFSHSAMGWVRQAPGKGLEWVSSIYARGGYTYYADSVKGRFTISRDNSKNTLYLQMNSLRAEDTAVYYCARGYHLEYMVSQDVWGQGTLVTVSS",
    "Kd (nM)": 1.67
  },
  {
    "binder": "FHVH4 (#62 IgG) (Fc fusion, also called anti-CD5 IgG; not shown: human IgG4 Fc) QVQLVQSGAEVKKPGESLRISCKASGYSFSNHWIGWVRQKPGKGLEWMGSVYPGDSDTRYSPSFQGHVTVSADKSMNTAYLQWSSLKTSDTAMYYCARGGTIDGDYGGRQDFWGQGTMVTVSS",
    "Kd (nM)": 27.4
  },
  {
    "binder": "FHVH1 (#42 IgG) (Fc fusion, also called #42 clone; anti-CD5 IgG; not shown: human IgG4 Fc) EVQLLESGGGLVQPGGSLRLSCAASGFTFSHSAMGWVRQAPGKGLEWVSSIYARGGYTYYADSVKGRFTISRDNSKNTLYLQMNSLRAEDTAVYYCARGYHLEYMVSQDVWGQGTLVTVSS",
    "Kd (nM)": 2.9
  }
]

Next, consider the following binder.
// query Would you kindly share the measured Kd for FHVH2 (#60 IgG) (Fc fusion, also called anti-CD5 IgG; not shown: human IgG4 Fc) QVQLVESGGGLVQPGGSLRLSCAASGFTFSSYEMNWVRQAPGKGLEWVSYISSSGSTIYYADSVKGRFTISRDNAKNSLYLQMNSLRAEDTAVYYCARVAQREGDVWGKGTTVTVSS ?
// result 8.32
